Reported log10 of Ki values for the following compounds.
TESTED ON: Delta-type opioid receptor (Homo sapiens, UniProt P41143)
Sequence (P41143 whole entry): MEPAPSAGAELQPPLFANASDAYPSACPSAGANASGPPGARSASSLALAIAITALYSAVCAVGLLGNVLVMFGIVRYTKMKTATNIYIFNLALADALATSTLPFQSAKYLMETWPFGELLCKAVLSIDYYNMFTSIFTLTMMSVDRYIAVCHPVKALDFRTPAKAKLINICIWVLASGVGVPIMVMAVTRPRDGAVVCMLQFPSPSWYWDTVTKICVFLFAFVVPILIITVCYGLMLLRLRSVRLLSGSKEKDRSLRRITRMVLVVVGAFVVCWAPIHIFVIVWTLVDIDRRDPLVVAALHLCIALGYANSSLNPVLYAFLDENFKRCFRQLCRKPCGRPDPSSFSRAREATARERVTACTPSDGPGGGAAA
MEASUREMENT DESCRIPTION: Displacement of [3H]DPDPE from human DOR extracted from HEK293 cell membrane assessed as inhibition constant
# values: log10(Ki), units nM

> print(dat)
                                   compound                                 tested.on     quantity  result
1  CC(=O)C(C(C)=O)=C1N(CC2CC2)C2Cc3ccc(O)c4c3[C@]35CCN1[C@]23CCC(=O)C5O4 (stereo partly drawn)  Delta-type opioid receptor (Homo sapiens, UniProt P41143)  log10 of Ki    3.11
2  O=C1CC[C@]23C4[C@@H](CN(CC5CC5)C[N@@]42)[C@]32c3cccc(O)c3OC12 (stereo partly drawn)  Delta-type opioid receptor (Homo sapiens, UniProt P41143)  log10 of Ki    1.81
3  N[C@@]12CCC(=O)C3Oc4c(O)ccc5c4[C@@]31CCN(CC1CC1)C2C5 (stereo partly drawn)  Delta-type opioid receptor (Homo sapiens, UniProt P41143)  log10 of Ki    1.28
4  O=C1CC[C@@]23C4Cc5ccc(O)c6c5[C@@]2(CCN3CN4CCc2ccccc2)C1O6 (stereo partly drawn)  Delta-type opioid receptor (Homo sapiens, UniProt P41143)  log10 of Ki    1.40
5  C[C@@H](O)C[C@H]1NC2Cc3ccc(O)c4c3[C@]35CCN1[C@]23CCC(=O)C5O4 (stereo partly drawn)  Delta-type opioid receptor (Homo sapiens, UniProt P41143)  log10 of Ki    2.79
6  C[C@H](O)C[C@H]1NC2Cc3ccc(O)c4c3[C@]35CCN1[C@]23CCC(=O)C5O4 (stereo partly drawn)  Delta-type opioid receptor (Homo sapiens, UniProt P41143)  log10 of Ki    2.51

Next:
Item CN1CN2CC[C@]34c5c6ccc(O)c5OC3C(=O)CC[C@]24C1C6 (stereo partly drawn) has what recorded log10 of Ki?
2.20
